Target: CDK13 (human) (UniProt Q14004)
Sequence (Q14004 whole entry, looked up): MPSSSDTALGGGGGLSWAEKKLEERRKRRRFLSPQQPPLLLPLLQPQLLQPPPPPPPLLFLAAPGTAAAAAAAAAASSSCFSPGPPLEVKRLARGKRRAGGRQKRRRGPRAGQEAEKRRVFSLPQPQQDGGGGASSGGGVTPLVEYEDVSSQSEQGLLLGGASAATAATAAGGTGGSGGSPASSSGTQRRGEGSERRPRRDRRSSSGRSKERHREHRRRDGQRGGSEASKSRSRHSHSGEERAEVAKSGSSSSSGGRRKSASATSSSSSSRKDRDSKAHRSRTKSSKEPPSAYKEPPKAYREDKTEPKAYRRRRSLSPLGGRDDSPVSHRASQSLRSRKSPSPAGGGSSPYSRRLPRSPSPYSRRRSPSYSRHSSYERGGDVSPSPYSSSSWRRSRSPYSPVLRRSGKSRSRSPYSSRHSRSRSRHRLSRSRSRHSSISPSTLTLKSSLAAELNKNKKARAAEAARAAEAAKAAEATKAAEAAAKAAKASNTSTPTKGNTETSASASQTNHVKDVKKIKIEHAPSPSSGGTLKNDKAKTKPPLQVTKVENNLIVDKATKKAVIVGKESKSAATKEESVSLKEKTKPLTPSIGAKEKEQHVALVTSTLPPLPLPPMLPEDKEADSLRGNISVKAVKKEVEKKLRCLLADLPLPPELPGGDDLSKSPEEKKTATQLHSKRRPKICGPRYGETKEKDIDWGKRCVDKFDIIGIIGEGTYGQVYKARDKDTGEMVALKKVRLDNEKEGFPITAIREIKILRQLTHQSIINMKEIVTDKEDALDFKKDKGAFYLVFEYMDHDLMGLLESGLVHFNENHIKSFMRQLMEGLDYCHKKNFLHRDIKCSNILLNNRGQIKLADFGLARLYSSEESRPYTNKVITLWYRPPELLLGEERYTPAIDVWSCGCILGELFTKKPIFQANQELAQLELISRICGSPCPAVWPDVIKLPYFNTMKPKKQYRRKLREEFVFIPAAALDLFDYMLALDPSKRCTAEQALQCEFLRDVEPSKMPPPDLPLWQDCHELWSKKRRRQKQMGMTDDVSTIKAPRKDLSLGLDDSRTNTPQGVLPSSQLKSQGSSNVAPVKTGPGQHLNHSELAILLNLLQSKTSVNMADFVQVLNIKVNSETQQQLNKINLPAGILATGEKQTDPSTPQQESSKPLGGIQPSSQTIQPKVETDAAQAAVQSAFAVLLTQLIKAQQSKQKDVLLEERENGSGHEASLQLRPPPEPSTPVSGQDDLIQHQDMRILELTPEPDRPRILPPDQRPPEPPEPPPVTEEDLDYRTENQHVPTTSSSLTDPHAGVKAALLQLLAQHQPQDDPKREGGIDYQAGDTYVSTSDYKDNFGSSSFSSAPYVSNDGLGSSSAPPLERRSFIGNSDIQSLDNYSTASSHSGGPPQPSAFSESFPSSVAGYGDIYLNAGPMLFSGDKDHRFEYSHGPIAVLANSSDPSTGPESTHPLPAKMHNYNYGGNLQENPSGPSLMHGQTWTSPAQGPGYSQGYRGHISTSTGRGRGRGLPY
Test: KINOMEscan competition binding
Details: compound 10.0 µM
READOUT: kinase still bound, per cent of control (%)
Response body: numeric value in %, unit text excluded.

Sample records with kinase still bound, per cent of control:
- MOL: "C[C@@H](Oc1cc(-c2cnn(C3CCNCC3)c2)cnc1N)c1c(Cl)ccc(F)c1Cl"
  kinase still bound, per cent of control (%): 24
- MOL: "COc1ccc(N(C(=O)Oc2c(C)cccc2C)c2ccnc(Nc3ccc(N4CCN(C)CC4)cc3)n2)c(OC)c1"
  kinase still bound, per cent of control (%): 100

If you can, please state the reported kinase still bound, per cent of control value of NC(=O)Nc1cc(-c2cccc(F)c2)sc1C(=O)N[C@@H]1CCCNC1 .
100
